The reported numbers originate from patent US11344574B2.

# assay: Maximal tolerable dose (MTD) studies
# Format: in vivo, rats
# run_parameters: rat, in vivo, sc; subcutaneous, safe non-toxic dose for multiple dosing
property_label: MTD at 2 weeks (mg/kg)
Write the answer as a number in mg/kg, unit excluded.

Qu. So what does the record say about MTD at 2 weeks for FC(F)(F)CCCC[n+]1ccccc1C1=C2C=CC3=[N+]2[Mn]24[n]5c1ccc5C(c1cccc[n+]1CCCCC(F)(F)F)=C1C=CC(=[N+]12)C(c1cccc[n+]1CCCCC(F)(F)F)=c1ccc([n]14)=C3c1cccc[n+]1CCCCC(F)(F)F [Mn4] ?
Ans. 0.5

----------
# assay: Pharmacokinetic studies in plasma and organs, 1 mg/kg
# Type: in vivo, rats
# run_parameters: male, rat, testes, 1 mg/kg
property_label: Cmax
Give your result as the value with the unit written after it.

Qu. If you can, please state the reported Cmax value of FC(F)(F)CCCC[n+]1ccccc1C1=C2C=CC3=[N+]2[Mn]24[n]5c1ccc5C(c1cccc[n+]1CCCCC(F)(F)F)=C1C=CC(=[N+]12)C(c1cccc[n+]1CCCCC(F)(F)F)=c1ccc([n]14)=C3c1cccc[n+]1CCCCC(F)(F)F [Mn4] .
Ans. 190 nM
